Provenance of the data: patent US20200317776A1

Molecular target: T1, human TREM2 expressed on cells (human, UniProt Q9NZC2 19-230)
T1 sequence: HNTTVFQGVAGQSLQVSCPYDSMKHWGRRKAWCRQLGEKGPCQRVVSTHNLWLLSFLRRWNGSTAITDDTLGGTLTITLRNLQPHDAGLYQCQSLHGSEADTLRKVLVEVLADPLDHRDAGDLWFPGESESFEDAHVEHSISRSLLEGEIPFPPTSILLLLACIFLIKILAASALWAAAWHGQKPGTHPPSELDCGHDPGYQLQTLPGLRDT
Test: cell-based or functional assay
ENDPOINT: DC viability (AUC)

[[record]]
binder = "AL2p-41 (antibody, IgG1, V domains shown, Fab and IgG formats under one id) VH: QVQLVQSGAEVKKPGSSVKVSCKASGYAFSSHWMNWVRQAPGQGLEWMGRIYPGEGDTNYAQKFRGRVTITADESTSTAYMELSSLRSEDTAVYYCARLLRNQPGASYAMDYWGQGTLVTVSS VL: GVVMTQTPLSLSVTPGQPASISCRSSRSLVHSNQYTYLHWYLQKPGQSPQLLIYKVSNRRSGVPDRFSGSGSGTDFTLKISRVEAEDVGVYYCSQSTRVPYTFGQGTKLEIK"
endpoint = "DC viability (AUC)"
measurement = 860000

[[record]]
binder = "AL2p-42 (antibody, V domains shown, Fab and IgG formats under one id) VH: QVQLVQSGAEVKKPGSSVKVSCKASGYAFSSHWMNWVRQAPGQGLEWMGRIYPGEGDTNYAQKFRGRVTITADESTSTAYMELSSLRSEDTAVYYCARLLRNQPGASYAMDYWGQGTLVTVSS VL: GVVMTQTPLSLSVTPGQPASISCRTSRSLVHSNRYTYLHWYLQKPGQSPQLLIYKVSNRRSGVPDRFSGSGSGTDFTLKISRVEAEDVGVYYCSQSTRVPYTFGQGTKLEIK"
endpoint = "DC viability (AUC)"
measurement = 781000

[[record]]
binder = "AL2p-48 (antibody, V domains shown, Fab and IgG formats under one id) VH: QVQLVQSGAEVKKPGSSVKVSCKASGYAFSSDWMNWVRQAPGQGLEWMGRIYPGEGDTNYARKFHGRVTITADESTSTAYMELSSLRSEDTAVYYCARLLRNKPGESYAMDYWGQGTLVTVSS VL: DVVMTQTPLSLSVTPGQPASISCRTSQSLVHSNQYTYLHWYLQKPGQSPQLLIYKVSNRVSGVPDRFSGSGSGTDFTLKISRVEAEDVGVYYCSQSTRVPYTFGQGTKLEIK"
endpoint = "DC viability (AUC)"
measurement = 770000

